Biological target: T1, GST-PIF4 (Arabidopsis thaliana, UniProt Q8W2F3 1-430)
T1 sequence: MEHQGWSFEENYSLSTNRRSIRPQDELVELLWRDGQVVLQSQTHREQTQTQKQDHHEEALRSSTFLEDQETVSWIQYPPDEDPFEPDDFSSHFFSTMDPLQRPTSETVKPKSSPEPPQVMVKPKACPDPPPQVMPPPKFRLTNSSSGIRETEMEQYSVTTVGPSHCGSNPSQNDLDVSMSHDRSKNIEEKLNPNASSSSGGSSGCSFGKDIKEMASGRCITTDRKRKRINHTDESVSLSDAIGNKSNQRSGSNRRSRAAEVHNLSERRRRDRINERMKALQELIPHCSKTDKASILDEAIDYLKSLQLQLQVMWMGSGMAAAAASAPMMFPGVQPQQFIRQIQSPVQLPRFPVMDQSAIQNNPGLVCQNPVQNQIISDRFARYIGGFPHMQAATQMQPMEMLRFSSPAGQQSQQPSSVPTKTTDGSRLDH
Assay: EMSA
Recorded Endpoint: binding result

Consider the reported binding result for these binders:
// recorded binding result for NAC019pro-G2 (dsDNA) DNA 1: CATTTCAGAAAACCCGTCAACAAAAAACACGTGAAATAAAATATCTCTTCCTTTACCAGT DNA 2: ACTGGTAAAGGAAGAGATATTTTATTTCACGTGTTTTTTGTTGACGGGTTTTCTGAAATG : no binding

So, IAA29pro-p (dsDNA) DNA 1: GATGTTGGATGTCTAAATTCGTTGAATCATGTGTCTCTTGACGAAATATGCATCTTCTTA DNA 2: TAAGAAGATGCATATTTCGTCAAGAGACACATGATTCAACGAATTTAGACATCCAACATC ? Its binding result was no binding

Sure, the documented binding result for NAC019pro-G34 (dsDNA) DNA 1: TTGCGCCTAACTTCTACGATAGACACGTGGACACGTGTCGTCATGATGTAGTTTTGTCCG DNA 2: CGGACAAAACTACATCATGACGACACGTGTCCACGTGTCTATCGTAGAAGTTAGGCGCAA is binds

Lab note: measured binding result of NAC019pro-G1 (dsDNA) DNA 1: ATCACGACGATCTAACTGACACACGTGTCAGAATTCAAAAGTGTTTATAGATAAACACAA DNA 2: TTGTGTTTATCTATAAACACTTTTGAATTCTGACACGTGTGTCAGTTAGATCGTCGTGAT was binds

Lab note: next binder to report on.
Documented binding result of IAA29pro-G (dsDNA) DNA 1: GAGTAGTCACGCACGCACGACTCCGTTCACGTGACATTCACGTTGATATTTCCCCCTCTA DNA 2: TAGAGGGGGAAATATCAACGTGAATGTCACGTGAACGGAGTCGTGCGTGCGTGACTACTC : binds
